Collected Plasma stability % Remaining, Human values appear next to each entry.
assay: In vitro plasma stability, human plasma; conditions: 2 μM, 37 °C, time point 120 min
State just the number; it will be interpreted in %.

Consider the worked cases shown below.
Cn1nnnc1SCC1=C(C(=O)O)N2C(=O)[C@@H](NC(=O)Cc3ccc(C4=NCCCN4)cc3)[C@H]2SC1
79.0
CCCc1nnc(SCC2=C(C(=O)O)N3C(=O)[C@@H](NC(=O)Cc4ccc(C(=N)N)cc4)[C@H]3SC2)s1
77.2
NCCSC=CC1=C(C(=O)O)N2C(=O)C(NC(=O)CSc3ccc(Cl)c(Cl)c3)C2SC1 (centres unmarked)
9.5

CON=C(C(=O)N[C@@H]1C(=O)N2C(C(=O)O)=C(CSc3cccc[n+]3[O-])CS[C@H]12)c1csc(N)n1 has a reported Plasma stability % Remaining, Human of 83.4

CCc1nnc(SCC2=C(C(=O)O)N3C(=O)[C@@H](NC(=O)Cc4ccc(C5=NCCN5)cc4)[C@H]3SC2)s1 has a reported Plasma stability % Remaining, Human of 78.9

CCc1nnc(SCC2=C(C(=O)O)N3C(=O)[C@@H](NC(=O)Cc4ccc(C5=NCCCN5)cc4)[C@H]3SC2)s1 has a reported Plasma stability % Remaining, Human of 17.4

NCc1ccccc1CC(=O)N[C@@H]1C(=O)N2C(C(=O)O)=C(CSc3nnnn3CCO)CS[C@H]12 has a reported Plasma stability % Remaining, Human of 75.1

CNCc1ccccc1CC(=O)N[C@@H]1C(=O)N2C(C(=O)O)=C(CSc3nnnn3C)CS[C@H]12 has a reported Plasma stability % Remaining, Human of 73.6
